Cited source for all entries: ChEMBL document CHEMBL5625224

Here, each record is paired with measured IC50 data.
molecular target: Poly [ADP-ribose] polymerase 1 (Homo sapiens, UniProt P09874); experiment: Inhibition of PARP1 (unknown origin) incubated for 1 hr by ELISA analysis
Sequence (P09874 whole entry): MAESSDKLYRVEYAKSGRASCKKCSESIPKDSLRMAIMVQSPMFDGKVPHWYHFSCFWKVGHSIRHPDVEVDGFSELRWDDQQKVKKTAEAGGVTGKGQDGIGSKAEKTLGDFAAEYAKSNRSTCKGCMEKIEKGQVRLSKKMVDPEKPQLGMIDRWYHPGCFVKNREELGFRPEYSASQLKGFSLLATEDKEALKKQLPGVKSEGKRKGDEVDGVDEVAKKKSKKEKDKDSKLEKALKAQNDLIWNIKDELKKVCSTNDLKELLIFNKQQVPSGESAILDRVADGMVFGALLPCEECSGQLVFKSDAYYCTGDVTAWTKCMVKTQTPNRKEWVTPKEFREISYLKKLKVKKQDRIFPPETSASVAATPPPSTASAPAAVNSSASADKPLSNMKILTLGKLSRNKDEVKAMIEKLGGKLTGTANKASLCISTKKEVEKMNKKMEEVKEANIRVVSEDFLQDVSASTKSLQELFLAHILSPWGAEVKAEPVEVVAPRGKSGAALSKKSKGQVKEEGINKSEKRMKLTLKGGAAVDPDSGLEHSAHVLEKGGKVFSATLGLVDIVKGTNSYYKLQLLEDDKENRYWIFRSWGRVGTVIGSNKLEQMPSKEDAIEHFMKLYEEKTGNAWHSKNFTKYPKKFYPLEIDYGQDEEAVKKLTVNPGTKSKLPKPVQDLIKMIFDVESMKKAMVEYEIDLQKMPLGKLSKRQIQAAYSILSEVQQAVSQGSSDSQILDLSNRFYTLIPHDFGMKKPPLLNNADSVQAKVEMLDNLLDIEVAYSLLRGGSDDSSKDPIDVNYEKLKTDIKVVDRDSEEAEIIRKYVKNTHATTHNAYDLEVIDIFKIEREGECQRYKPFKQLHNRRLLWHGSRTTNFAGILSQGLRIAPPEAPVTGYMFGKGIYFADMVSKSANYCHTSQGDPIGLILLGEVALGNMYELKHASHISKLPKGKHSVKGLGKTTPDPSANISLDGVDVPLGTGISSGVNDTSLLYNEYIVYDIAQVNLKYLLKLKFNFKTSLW
// return numeric value only (unit: nM, not printed)

>>> meas_value("CC1c2cc(F)ccc2CCN1C(=O)c1cc(Cc2n[nH]c(=O)c3ccccc23)ccc1F (centres undefined)")
70.7

Consider CC1CN(C(=O)c2cc(Cc3n[nH]c(=O)c4ccccc34)ccc2F)Cc2nnc(CF)n21 (centres undefined) . Its measured IC50 is 11.9

CC1CN(C(=O)c2cc(Cc3n[nH]c(=O)c4ccccc34)ccc2F)Cc2nnc(C(F)(F)Cl)n21 (centres undefined) has a reported IC50 of 3.4

Given item CC1CN(C(=O)c2cc(Cc3n[nH]c(=O)c4ccccc34)ccc2F)Cc2nnc(-c3ccccn3)n21 (centres undefined) , the value recorded as its IC50 is 2

Entry CC1CN(C(=O)c2cc(Cn3c(=O)[nH]c(=O)c4ccccc43)ccc2F)Cc2nnc(-c3ccccn3)n21 (centres undefined) ; IC50 = 4.6

Looking up CC1c2ccccc2CCN1C(=O)c1cc(Cc2n[nH]c(=O)c3ccccc23)ccc1F (centres undefined) , I found its IC50 recorded as 42.8

====

test: Cytotoxicity against Chinese hamster V-C8 BRCA2-/- cells assessed as reduction in cell viability; assay type: toxicity, cell-based, Cricetulus griseus
Measured CC50 of individual entries
Could you give me the number in nM? Just the number is fine.

Worked examples, 2 compounds total:
>>> meas_value("CC1CN(C(=O)c2cc(Cc3n[nH]c(=O)c4ccccc34)ccc2F)Cc2nnc(C(F)(F)F)n21 (stereo not drawn)")
42
>>> meas_value("O=C1CC2c3c(cccc31)CCN2C(=O)c1cc(Cc2n[nH]c(=O)c3ccccc23)ccc1F (stereo not drawn)")
4.53

With those in mind, consider the next compound.
Lab note: measured CC50 of O=C1NCC2c3c(cccc31)CCN2C(=O)c1cc(Cc2n[nH]c(=O)c3ccccc23)ccc1F (stereo not drawn) was 96

====

List of IC50 tested on Voltage-gated inwardly rectifying potassium channel KCNH2 (Homo sapiens).
Sequence (Q12809 whole entry): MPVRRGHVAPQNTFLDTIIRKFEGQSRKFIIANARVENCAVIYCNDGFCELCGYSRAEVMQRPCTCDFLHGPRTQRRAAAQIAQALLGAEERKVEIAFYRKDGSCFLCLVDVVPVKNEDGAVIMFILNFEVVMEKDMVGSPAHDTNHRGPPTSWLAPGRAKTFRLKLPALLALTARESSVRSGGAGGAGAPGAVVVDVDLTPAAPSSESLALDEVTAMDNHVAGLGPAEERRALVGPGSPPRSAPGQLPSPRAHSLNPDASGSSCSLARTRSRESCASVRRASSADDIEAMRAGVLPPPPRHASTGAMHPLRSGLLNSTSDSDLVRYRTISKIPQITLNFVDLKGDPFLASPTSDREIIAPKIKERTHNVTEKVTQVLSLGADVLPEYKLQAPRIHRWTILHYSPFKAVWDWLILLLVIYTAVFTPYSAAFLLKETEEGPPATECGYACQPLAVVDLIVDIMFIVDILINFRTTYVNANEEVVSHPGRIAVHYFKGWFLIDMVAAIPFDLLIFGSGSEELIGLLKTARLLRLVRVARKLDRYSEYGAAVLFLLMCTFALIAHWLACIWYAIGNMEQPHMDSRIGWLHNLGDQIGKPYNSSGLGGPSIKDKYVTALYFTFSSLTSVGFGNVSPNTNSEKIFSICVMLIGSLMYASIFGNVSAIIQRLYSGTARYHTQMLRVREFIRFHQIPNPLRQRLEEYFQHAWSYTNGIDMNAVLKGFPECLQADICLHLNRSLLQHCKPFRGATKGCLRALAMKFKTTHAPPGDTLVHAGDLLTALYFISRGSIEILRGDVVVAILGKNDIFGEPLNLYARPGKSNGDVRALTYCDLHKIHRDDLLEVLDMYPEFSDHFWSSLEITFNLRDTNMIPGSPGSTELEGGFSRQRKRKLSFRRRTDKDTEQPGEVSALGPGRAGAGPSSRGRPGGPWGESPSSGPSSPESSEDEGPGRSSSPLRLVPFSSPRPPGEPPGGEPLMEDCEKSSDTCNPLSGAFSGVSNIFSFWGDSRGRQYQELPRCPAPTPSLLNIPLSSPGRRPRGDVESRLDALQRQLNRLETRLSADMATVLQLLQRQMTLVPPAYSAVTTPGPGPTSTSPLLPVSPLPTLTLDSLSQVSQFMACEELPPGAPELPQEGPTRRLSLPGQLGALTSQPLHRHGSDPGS
The reply should be a number in µM, with the unit left off.

>>> meas_value("CC1CN(C(=O)c2cc(Cc3n[nH]c(=O)c4ccccc34)ccc2F)Cc2nnc(-c3ccccn3)n21 (centres undefined)")
17.4
>>> meas_value("CC1CN(C(=O)c2cc(Cc3n[nH]c(=O)c4ccccc34)ccc2F)Cc2nnc(-c3cccs3)n21 (centres undefined)")
4.1
>>> meas_value("CC1CN(C(=O)c2cc(Cc3n[nH]c(=O)c4ccccc34)ccc2F)Cc2nnc(C(F)(F)C(F)(F)F)n21 (centres undefined)")
40

Next up:
Record COc1cccc(-c2nnc3n2C(C)CN(C(=O)c2cc(Cc4n[nH]c(=O)c5ccccc45)ccc2F)C3)n1 (centres undefined) . Reported IC50: 17.5

====

molecular target: Poly [ADP-ribose] polymerase 1 (Homo sapiens, UniProt P09874); experiment: Inhibition of PARP1 (unknown origin)
QUANTITY KIND: pIC50
A value of pIC50 is the negative decimal logarithm of a concentration given in moles per litre.

Record O=C1CC2c3c(cccc31)CCN2C(=O)c1cc(Cc2n[nH]c(=O)c3ccccc23)ccc1F (stereo unspecified) , field pIC50: 8.46

====

target: Poly [ADP-ribose] polymerase 1 (Homo sapiens, UniProt P09874); assay: Inhibition of PARP1 (unknown origin) incubated for 1 hr by ELISA analysis
Quick reference: IC50 of the listed items.
Write the number in nM without appending the unit.

get_value(item= CC1CN(C(=O)c2cc(Cc3n[nH]c(=O)c4ccccc34)ccc2F)Cc2nnc(-c3cncs3)n21 (stereo not given) , readout=IC50) returns 5.8

# IC50 of CC1CN(C(=O)c2cc(Cc3n[nH]c(=O)c4ccccc34)ccc2F)Cc2nnc(C(O)CO)n21 (stereo not given) = 21

The recorded IC50 for COc1cccc(-c2nnc3n2C(C)CN(C(=O)c2cc(Cc4n[nH]c(=O)c5ccccc45)ccc2F)C3)n1 (stereo not given) is 0.6
